# maps each entry to its viability, T/C
# Test system: 454973-116-R2-J3-PDC complex spheroid viability
# assay-summary: Anticancer human tumor 454973-116-R2-J3-PDC patient-derived pancreatic carcinoma cell line growth inhibition [POLQ]
# reported-conditions: second compound 0.1 µM; first compound 0.0316 µM; active compounds read low
measured-metric: viability, T/C

>>> assay_result("O=C(c1cc(Cc2n[nH]c(=O)c3ccccc23)ccc1F)N1CCN(C(=O)C2CC2)CC1 + COC1C(OC(N)=O)C(O)C(Oc2ccc3c(O)c(NC(=O)c4ccc(O)c(CC=C(C)C)c4)c(=O)oc3c2C)OC1(C)C")
"106%"
>>> assay_result("C=CCn1c(=O)c2cnc(Nc3ccc(N4CCN(C)CC4)cc3)nc2n1-c1cccc(C(C)(C)O)n1 + Nc1ccc(C#CCN(C(=O)Cc2ncc(C(F)(F)F)cc2C(F)(F)F)c2ccc(F)cc2)nn1")
"102%"
>>> assay_result("O=c1[nH]cc(F)c(=O)[nH]1 + COC1C(OC(N)=O)C(O)C(Oc2ccc3c(O)c(NC(=O)c4ccc(O)c(CC=C(C)C)c4)c(=O)oc3c2C)OC1(C)C")
"105%"
>>> assay_result("C=CC(=O)N1CCN(c2nc(=O)n(-c3c(C)ccnc3C(C)C)c3nc(-c4c(O)cccc4F)c(F)cc23)C(C)C1 (stereo not given) + Cc1cccc(N(C)C(=O)C2C(O)CCN2c2nc(C)cc(C(F)(F)F)c2C#N)c1")
"96.9%"
>>> assay_result("COc1cc(C2c3cc4c(cc3C(OC3OC5COC(C)OC5C(O)C3O)C3COC(=O)C23)OCO4)cc(OC)c1O (stereo not given) + Nc1ccc(C#CCN(C(=O)Cc2ncc(C(F)(F)F)cc2C(F)(F)F)c2ccc(F)cc2)nn1")
"107%"
>>> assay_result("CC(C)n1c(=O)n(C)c2cnc3cc(F)c(-c4ccc(OCCCN5CCCCC5)nc4)cc3c21 + COC1C(OC(N)=O)C(O)C(Oc2ccc3c(O)c(NC(=O)c4ccc(O)c(CC=C(C)C)c4)c(=O)oc3c2C)OC1(C)C")
"107%"
>>> assay_result("C=CCn1c(=O)c2cnc(Nc3ccc(N4CCN(C)CC4)cc3)nc2n1-c1cccc(C(C)(C)O)n1 + COC1C(OC(N)=O)C(O)C(Oc2ccc3c(O)c(NC(=O)c4ccc(O)c(CC=C(C)C)c4)c(=O)oc3c2C)OC1(C)C")
"102%"
>>> assay_result("Nc1ccn(C2OC(CO)C(O)C2(F)F)c(=O)n1 (stereo not given) + Cc1cccc(N(C)C(=O)C2C(O)CCN2c2nc(C)cc(C(F)(F)F)c2C#N)c1")
"16.2%"
>>> assay_result("CC1COCCN1c1cc(C2(O)CC3CCC(C2)O3)c2cnn(-c3ccn[nH]3)c2n1 (stereo not given) + Cc1cccc(N(C)C(=O)C2C(O)CCN2c2nc(C)cc(C(F)(F)F)c2C#N)c1")
"90.6%"
>>> assay_result("O=C(c1cc(Cc2n[nH]c(=O)c3ccccc23)ccc1F)N1CCN(C(=O)C2CC2)CC1 + Nc1ccc(C#CCN(C(=O)Cc2ncc(C(F)(F)F)cc2C(F)(F)F)c2ccc(F)cc2)nn1")
"101%"

* * *

# Test system: 454973-116-R2-J3-PDC complex spheroid viability
# assay-summary: Anticancer human tumor 454973-116-R2-J3-PDC cell line growth inhibition [POLQ];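 note: spheroids exposed to drugs for seven days before measurement; percent viability relative to DMSO vehicle control wells taken as 100%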
# reported-conditions: second compound 3.16 µM; first compound 0.316 µM; active compounds read low
# maps each entry to its viability, T/C
measured-metric: viability, T/C (%)

>>> assay_result("C#Cc1c(F)ccc2cc(O)cc(-c3ncc4c(N5CC6CCC(C5)N6)nc(OCC56CCCN5CC(F)C6)nc4c3F)c12 (stereo not given) + Cc1cccc(N(C)C(=O)C2C(O)CCN2c2nc(C)cc(C(F)(F)F)c2C#N)c1")
35.1
>>> assay_result("C=CC(=O)N1CCN(c2nc(=O)n(-c3c(C)ccnc3C(C)C)c3nc(-c4c(O)cccc4F)c(F)cc23)C(C)C1 (stereo not given) + Nc1ccc(C#CCN(C(=O)Cc2ncc(C(F)(F)F)cc2C(F)(F)F)c2ccc(F)cc2)nn1")
120
>>> assay_result("CNCc1ccc(-c2[nH]c3cc(F)cc4c3c2CCNC4=O)cc1 + COC1C(OC(N)=O)C(O)C(Oc2ccc3c(O)c(NC(=O)c4ccc(O)c(CC=C(C)C)c4)c(=O)oc3c2C)OC1(C)C")
101
>>> assay_result("C#Cc1c(F)ccc2cc(O)cc(-c3ncc4c(N5CC6CCC(C5)N6)nc(OCC56CCCN5CC(F)C6)nc4c3F)c12 (stereo not given) + COC1C(OC(N)=O)C(O)C(Oc2ccc3c(O)c(NC(=O)c4ccc(O)c(CC=C(C)C)c4)c(=O)oc3c2C)OC1(C)C")
41
>>> assay_result("COc1ccc([C@@H](O)c2cc(-c3ncnc4cc(N5CCOCC5)ccc34)c(F)cc2Cl)nn1 + Nc1ccc(C#CCN(C(=O)Cc2ncc(C(F)(F)F)cc2C(F)(F)F)c2ccc(F)cc2)nn1")
116
